Target: CXCR4 (Homo sapiens)
Sequence (P61073 whole entry): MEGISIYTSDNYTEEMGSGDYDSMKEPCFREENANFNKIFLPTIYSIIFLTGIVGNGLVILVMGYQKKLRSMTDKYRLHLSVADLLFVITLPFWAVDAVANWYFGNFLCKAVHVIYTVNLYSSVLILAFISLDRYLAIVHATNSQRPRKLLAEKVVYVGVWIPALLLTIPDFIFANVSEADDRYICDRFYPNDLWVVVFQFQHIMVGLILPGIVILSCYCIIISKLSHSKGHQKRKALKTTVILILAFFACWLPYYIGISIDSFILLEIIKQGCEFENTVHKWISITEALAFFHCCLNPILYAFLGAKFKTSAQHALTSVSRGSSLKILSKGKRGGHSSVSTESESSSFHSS
Assay: β-arrestin recruitment, 384-well, Tango CXCR4-bla U2OS cells, normalized to SDF-1α
Type: cell-based
Design: host or cells: U2OS
Details: normalized to SDF-1α; read-out: ß-arrestin recruitment EC50
Quantity: pEC50
Numbers only, as −log10 of the molar value.

> print(dat)
                                   compound  measurement
1  COc1ccccc1-c1nnc2n1N=C(c1ccc(N(C)C)cc1)CS2         7.22
2  CCOc1ccccc1-c1nnc2n1N=C(c1ccc(N3CCCC3)cc1)CS2 [Thiadiazine Entry 23]         7.70
3   COc1ccc(C2=Nn3c(nnc3-c3ccccc3OC)SC2)cc1         7.27
4  CCOc1ccccc1-c1nnc2n1N=C(c1ccc(N3CCCC3)cc1)CS2 [Entry 23]         7.70

Please respond with reported pEC50 (system CXCR4 (Homo sapiens)) for CCCCc1ccc(C2=Nn3c(nnc3-c3ccccc3OC)SC2)cc1 .
4.85

This collection of values is drawn from patent US20250136617A1.
